The reader will find reported EC50 values listed item by item below.
- measurement-target: Peroxisome proliferator-activated receptor delta (Homo sapiens)
- Sequence (Q03181 whole entry): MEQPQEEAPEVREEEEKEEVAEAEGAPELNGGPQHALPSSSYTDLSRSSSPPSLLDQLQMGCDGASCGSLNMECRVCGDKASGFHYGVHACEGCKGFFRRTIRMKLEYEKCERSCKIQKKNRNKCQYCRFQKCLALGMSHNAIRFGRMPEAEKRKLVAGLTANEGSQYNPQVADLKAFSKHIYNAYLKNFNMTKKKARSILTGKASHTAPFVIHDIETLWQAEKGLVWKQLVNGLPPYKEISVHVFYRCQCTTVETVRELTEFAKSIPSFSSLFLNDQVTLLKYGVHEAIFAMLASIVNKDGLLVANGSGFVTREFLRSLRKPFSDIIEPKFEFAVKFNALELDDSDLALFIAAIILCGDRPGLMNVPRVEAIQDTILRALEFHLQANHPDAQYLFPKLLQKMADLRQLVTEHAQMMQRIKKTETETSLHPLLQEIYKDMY
- assay-remarks: Agonist activity at human PPARdelta measured by dual luciferase reporter gene assay
measured-metric: EC50

{"columns": ["molecule", "val"],
 "data": [
  ["COc1ccc(/C=C/c2cc(OC)cc(OCc3ccc(OCC(=O)O)cc3)c2)cc1", "8.75 µM"],
  ["COc1ccc(/C=C/c2cc(OC)cc(OCc3ccc(OC(C)C(=O)O)c(F)c3)c2)cc1 (centres undefined)", "4.5 µM"],
  ["COc1ccc2ccc(-c3cccc(OCc4ccc(OCC(=O)O)c(F)c4)c3)cc2c1", "10.8 µM"],
  ["O=C(O)COc1ccc(COc2cccc(-c3nc4cc(Cl)ccc4o3)c2)cc1F", "20.8 µM"]
]}

Origin of measurements: ChEMBL document CHEMBL5154671
